# key: entry, value: pKd
Target: T1, recombinant HLA-DQ2.5/33mer gliadin peptide complex (human; wheat)
T1 construct: also called soluble HLA-DQ2.5/33mer gliadin peptide complex
T1 alpha: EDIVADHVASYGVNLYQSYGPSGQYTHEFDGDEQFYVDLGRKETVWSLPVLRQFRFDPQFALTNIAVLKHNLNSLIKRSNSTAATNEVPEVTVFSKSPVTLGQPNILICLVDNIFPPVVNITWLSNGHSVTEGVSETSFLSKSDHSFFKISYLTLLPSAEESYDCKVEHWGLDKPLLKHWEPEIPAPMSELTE
T1 beta: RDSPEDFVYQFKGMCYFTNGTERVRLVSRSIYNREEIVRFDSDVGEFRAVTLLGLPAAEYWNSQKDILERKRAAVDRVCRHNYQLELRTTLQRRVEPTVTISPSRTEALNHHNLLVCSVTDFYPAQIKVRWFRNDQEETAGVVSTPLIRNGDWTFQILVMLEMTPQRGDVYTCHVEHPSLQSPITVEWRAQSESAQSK
T1 peptide: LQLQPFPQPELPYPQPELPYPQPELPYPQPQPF
Experiment: SPR, Ab captured, 37 C, pH 7.4
Here pKd is given on a logarithmic scale as minus log10 of the concentration in mol/L.

Completed entries (count: 2):
binder	recorded_result
DQN0225dd (antibody, human IgG1, kappa, V domains shown, also called DQN0225Hd; DQN0225Ld) VH: QSLEESGGGLVKPGGTLTLTCTASGFSFSSAYYMCWVRQAPGKGLEWIACIYVGSGSTYYASWAQGRCTISKASSTTVTLQMTSLTAADTATYFCARDPLIYYYYGELNLWGPGTLVTVSS VL: AVVLTQTASPVSAPVGGTVTIKCQASEDISSNLAWYQQKPGQRPKVLIYSASTLASGVSSQFKGSGSGTQFTLTISDLECADAATYYCQSYYDISSVTFGGGTKVEIKR	8.10
DQN0370hh (antibody, human IgG1, kappa, V domains shown, also called DQN0370Lh) VH: QSLEESGGGLVKPGGPLTLTCTASGFSFSSAYYMCWVRQAPGKGLEWIACIYVGSGSTYYTSWAKGRFTISKVSSTTMTLQMTSLTAADTATYFCARDPLIYYYYGELNLWGPGTLVTVSS VL: AVVLTQTASPVSAPVGGTVTIKCQASEDIYSNLAWYQQKPGQRPKVLIYSASTLASGVSSRFKGSRSGTEYTLSITDLGCADAATYYCQAYYDIGGVTFGGGTKVEIKR	8.35

**Query** Report pKd for DQN0282ff (antibody, human IgG1, kappa, V domains shown, also called DQN0282Hf; DQN0282Lf) VH: QSVEESGGRLVTPGTPLTLSCKASGFDFSIYYMSWVRQAPGKGLEWIGVINSGGGVTWYASWVKGRFTISKTSTTVDLKITSPTTEDTATYFCARLGDSNHYDLWGPGTLVTVSS VL: AYDMTQTPSSVSAAVGGTVTIKCQASETISSYLAWYQQKPGQRPQLLIYDASNLASGVPSRFKGSGSGTEFTLTISDLECADAATYYCQTHYYITSTTFGGGTKVEIKR
**Result** 7.94

**Query** Fill in reported pKd for this entry: DQN0334bb (antibody, human IgG1, kappa, V domains shown, also called DQN0334Hb; DQN0334Lb) VH: QQQLEESGGDLVQPEGSLTLTCKASGFDFSFNAMCWVRQAPGRGPEWIACIYNGNGSTYYASWAKGRFTISKTSSTSVTLQMTSLTAADTATYFCARGGYGLGYAGYGDVNYFNLWGPGTLVTVSS VL: AVVLTQTASPVSAPVGGTVTIKCQASEDIYFLLAWYRQKPGQPPKLLIYGASTLASGVPSRFKGSGSGTEYTLTISDLECADAATYYCQSYWYGDSGPNTFGGGTKVEIKR
**Result** 8.24

**Query** Query pKd for DQN0324hh (antibody, human IgG1, kappa, V domains shown, also called DQN0324Lh) VH: QSLEESGGDLVKPGASLALTCTASGFSLINNYYMCWVRQAPGKGLEWIACIYAGLGGWTYYASWAKGRFTISKTSSTTVTLQMSSLTVADAATYFCARAATTYYHFNLWGPGTLVTVSS VL: AVVLTQTESPVSAAVGDTVTIKCQASQSIGNALAWYQQKPGQPPKLLIYDASTLASGVPSRFKGSGSGTQFTLTISDLECADAATYYCQSYDYGSSADTYTFGGGTKVEIKR
**Result** 8.20

**Query** Input DQN0271hh (antibody, human IgG1, kappa, V domains shown, also called DQN0271Lh) VH: QSLEESGGGLVKPGASLTLTCKASGFSFSSGYYMCWVRQAPGKGLEWIACIYAGSPDLTYYATWAKGRLTISTTSSTTVTLQLTSLTAADTATYFCARDPGNWGGYDDVRLWGPGTLVTVSS VL: AQVLTQTPSPVSAAVGGTVTISCQSSQSIYSNYLSWFQQKTGQPPKLLIYRASTLASGVPSRFKGSGSGTEFTLTISGVECDDAATYYCQGYYSGAIWTFGGGTKVEIKR , output reported pKd.
**Result** 8.22
